Source of measurements: PubChem BioAssay (NCI)

# Tested on: SK-MEL-5 melanoma
# runDescription: NCI-60 one-dose screen, 48 h
# studyConditions: 10 µM unless noted
# Experimental: Growth inhibition of the SK-MEL-5 human tumor cell line is measured as a screen for anti-cancer activity. Cells are grown in 96 well plates and exposed to the test compound for 48 hours. Compounds are tested at a single concentration, which is 10^-5 M for most compounds. The reported endpoint is percent growth (GI% or GIPRCNT), where numbers from 0 - 100% represent growth inhibition, and numbers from -100% - 0 represent cell death. For example, a value of 40 represents 60% growth inhibition. […]
Compounds without any hit were thinned out: in the full panel of roughly 83,000, 20% have a hit. The source made the active and inactive calls. The calls were made as follows: active = growth percent below 10; inactive = the rest.
Hi! Could you answer with just one of these? active, inactive

> print(dat)
                                 smilesdata  assignedlabel
1  COc1nc2c(cc1S(=O)(=O)c1ccccc1)CCc1c-2cnn1-c1cccc(Cl)c1       inactive

Please indicate how the test categorized `FC(F)(F)c1cc(CNc2ncc(Br)c(Cl)n2)cc(C(F)(F)F)c1` .
inactive

Please indicate how the test categorized `O=C1C(OCCOc2ccccc2)=C(OCCOc2ccccc2)C(=O)c2ccccc21` .
inactive

Please indicate how the test categorized `COc1ccccc1CNCCCCCCCCCCCCN1C(=O)c2ccc3c4c(ccc(c24)C1=O)C(=O)N(CCCCCCCCCCCCNCc1ccccc1OC)C3=O` .
inactive

Please indicate how the test categorized `Cn1c(=O)c(S(=O)(=O)c2ccccc2)cc2ccc3c(cnn3-c3ccc(Cl)cc3)c21` .
inactive

Please indicate how the test categorized `O=C(c1ccc2ncc(-c3nc(NC4CC4)ncc3F)n2c1)N1CCOCC1` .
active

Please indicate how the test categorized `Fc1ccccc1Nc1ccc2nnc(-c3ccncc3)n2n1` .
inactive

Please indicate how the test categorized `COc1ccc(/C=C(\C#N)c2ccc(OC)cc2)cc1` .
inactive

Please indicate how the test categorized `CCOc1ccc(/C=N\N2CCCCCC2)cc1OCC` .
inactive

Please indicate how the test categorized `CC1=C(C/C=C(\C)CCC[C@H](C)CCC[C@H](C)CCCC(C)C)C(=O)c2ccccc2C1=O` .
inactive
